# maps each entry to its melting point

- molecule: "CC(C)Oc1cc(Oc2ccc(S(C)(=O)=O)cn2)cc2cc(C3=NCC(CCO)S3)[nH]c12 (stereo not shown) [Example 62]"
  test_result: "172 to 173 °C"
- molecule: "CS(=O)(=O)c1ccc(Oc2cc(OCc3cccc(Cl)n3)c3[nH]c(C4=NCC(CCO)S4)cc3c2)cc1 (stereo not shown) [Example 6]"
  test_result: "93 to 94 °C"
- molecule: "CS(=O)(=O)c1ccc(Oc2cc(OCc3ccccc3)c3[nH]c(-c4ncc(CO)s4)cc3c2)cc1 [Example 23]"
  test_result: "125 to 126 °C"

For this molecule ( COc1cc(Oc2ccc(S(C)(=O)=O)nc2)cc2cc(C3=NCC(CC(=O)N4CCOCC4)S3)[nH]c12 (stereo not shown) [Example 82] ), measured melting point is 148 to 149 °C

For this molecule ( COCC(C)Oc1cc(Oc2ccc(S(C)(=O)=O)cc2)cc2cc(C3=NCC(C(OC)OC)S3)[nH]c12 (stereo not shown) [Example 88] ), measured melting point is 109 to 112 °C

For this molecule ( CS(=O)(=O)c1ccc(Oc2cc(OCc3ccccc3)c3[nH]c(C4=NCC(CC(=O)O)S4)cc3c2)cc1 (stereo not shown) [Example 3] ), measured melting point is 218 to 219 °C

For this molecule ( CS(=O)(=O)c1ccc(Oc2cc(OCc3ccccc3)c3[nH]c(C4=NCC(CC(N)=O)S4)cc3c2)cc1 (stereo not shown) [Example 4] ), measured melting point is 134 to 135 °C
